Provenance of the data: patent US20240270821A1

Molecular target: hGIPR (Homo sapiens)
Sequence (P48546 22-466): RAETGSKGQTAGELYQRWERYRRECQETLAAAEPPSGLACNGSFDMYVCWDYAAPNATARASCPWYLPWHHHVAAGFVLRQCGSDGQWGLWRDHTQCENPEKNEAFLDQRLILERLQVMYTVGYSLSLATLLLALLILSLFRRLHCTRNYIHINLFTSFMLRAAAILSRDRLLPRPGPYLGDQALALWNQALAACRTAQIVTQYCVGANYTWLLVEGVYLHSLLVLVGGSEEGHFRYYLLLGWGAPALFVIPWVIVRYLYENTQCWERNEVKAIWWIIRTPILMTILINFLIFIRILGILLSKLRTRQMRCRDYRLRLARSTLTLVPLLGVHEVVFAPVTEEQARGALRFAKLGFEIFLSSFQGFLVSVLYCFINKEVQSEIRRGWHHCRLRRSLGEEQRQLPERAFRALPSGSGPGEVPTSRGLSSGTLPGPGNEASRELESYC
Test: Functional cAMP activation in the presence of 0.1% casein (no HSA);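 also: intracellular cAMP rise after 30 min at 37 °C read by HTRF against a standard curve, scaled between buffer alone (0%) and top control ligand concentration (100%), four-parameter fit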
Type: cell-based
Details: in the presence of 0.1% casein (no HSA); geometric mean; read-out: Relative cAMP EC50, hGIPR
Starred links: 1 amine or outer side, 2 acyl side, 3 side chain; linkers in the order of their positions; H or OH if unused. Non-standard residues stand in square brackets, D forms with d. Groups on a side chain read outwards from the residue. No end group written: not given here. *: point of attachment. C20 diacid = O=C(O)CCCCCCCCCCCCCCCCCCC(=O)*; C18 diacid = O=C(O)CCCCCCCCCCCCCCCCC(=O)*; αMePhe(2-F) = C[C@](N)(Cc1ccccc1F)C(=O)O; γGlu = O=C(O)[C@H](CCC(=O)[*:2])N[*:1]; αMe4Pal = C[C@](N)(Cc1ccncc1)C(=O)O; αMeY = C[C@](N)(Cc1ccc(O)cc1)C(=O)O; 4Pal = N[C@@H](Cc1ccncc1)C(=O)O; αMeL = CC(C)C[C@](C)(N)C(=O)O; αMeS = C[C@](N)(CO)C(=O)O; Orn = NCCC[C@H](N)C(=O)O; AEEA = NCCOCCOCC(=O)O; Aib = CC(C)(N)C(=O)O
Note: every record was labeled by where its EC50 sits among low-valued (below 0.1 nM), mid-valued (0.1 nM to below 0.3 nM), high-valued (0.3 nM or more)

Below, 8 substances whose answers are already recorded.
substance: H-Y[Aib]QGTFTSDYSQ[αMeL]LDKK([AEEA-γGlu-C18 diacid])AQ[Aib]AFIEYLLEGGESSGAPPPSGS-NH2 [Example 362]
assigned category: mid-valued

substance: Y[Aib]QGTFTSD[4Pal]S[Orn][αMeL]LD[Orn]K([γGlu-γGlu-C18 diacid])AQ[αMe4Pal]AFIEYLIAGGPSSGAPPPSGSE-NH2 [Example 1011]
assigned category: mid-valued

substance: H-Y[Aib]QGT[αMePhe(2-F)]TSDYSKLLDKQAQK([AEEA-γGlu-C20 diacid])QFIEYLIEGGPSSGEPPPSEG-NH2 [Example 309]
assigned category: high-valued

substance: Y[Aib]QGTFTSD[4Pal][αMeS]Q[αMeL]LD[Orn]K([dE-γGlu-C18 diacid])AQ[αMe4Pal]QFIQ[αMeY]LIEGGPSSGEPPPSGGGE-NH2 [Example 1188]
assigned category: low-valued

substance: H-Y[Aib]QGTFTSDFS[Orn][αMeL]LDKK([AEEA-γGlu-C18 diacid])AQ[Aib]AFIEYLLEGGPSSGAPPPGGT-NH2 [Example 158]
assigned category: mid-valued

substance: Y[Aib]QGTFTSD[4Pal]SQ[αMeL]LDKK([dE-γGlu-C18 diacid])AQ[αMe4Pal]AFIEYLIE[Aib]GPSSGAPPPSGSEE-NH2 [Example 928]
assigned category: low-valued

substance: H-Y[Aib]QGTFTSDFS[Orn][αMeL]LDKK([AEEA-AEEA-γGlu-C18 diacid])AQ[Aib]AFIEYLLE[Aib]GHSSGAPPPSGS-NH2 [Example 181]
assigned category: mid-valued

substance: H-Y[Aib]QGTFTSDFSK[αMeL]LDKK([AEEA-γGlu-C18 diacid])AQ[Aib]AFIEYLIEGGPSSGAPPPSEG-NH2 [Example 49]
assigned category: high-valued

Please let me know in which category the item H-Y[Aib]QGTFTSDFS[Orn][αMeL]LDKK([AEEA-AEEA-γGlu-C18 diacid])AQ[Aib]AFIEYLLE[Aib]GPSSGEPPPSGS-NH2 [Example 166] belongs.
mid-valued

Please classify: H-Y[Aib]QGTFTSDYSK[αMeL]LDKK([AEEA-γGlu-C20 diacid])AQQAFIEYLIAGGPSSGAPPPSSE-NH2 [Example 322]
mid-valued

Quick check: band for H-Y[Aib]QGTFTSD[4Pal]SQ[αMeL]LD[Orn]K([dE-γGlu-C18 diacid])AQ[αMe4Pal]AFIE[αMeY]LIAGGPSSGAPPPSGSEE-NH2 [Example 1074]
low-valued
